FYI, the data here is from the MegaScale stability set (Tsuboyama et al. 2023).

B1: r16_88_TrROS_Hall (parent)
chain: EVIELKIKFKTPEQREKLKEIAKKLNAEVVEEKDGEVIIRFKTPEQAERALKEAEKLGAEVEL

Variants of: B1
Assay Explanation: folding stability dG (cDNA display proteolysis); higher = more stable
Run Parameters: PBS, room temperature
Parameter: folding stability dG

As a guide, the following entries are already answered.
I21F    19.9 kJ/mol
E31G    18.4 kJ/mol
V30S    18.9 kJ/mol
L25V    18.1 kJ/mol
T43P    12.8 kJ/mol

For every listed record, write down its folding stability dG.
1. K52N
2. V29F
3. E13K
4. K8S

Result:
1. 17.8 kJ/mol
2. 17.7 kJ/mol
3. 18.9 kJ/mol
4. 17.2 kJ/mol

For each entry beneath this line, provide reported folding stability dG.
1. A22I
2. I38G
3. V61C
4. E45H
5. A47Q
6. K23Q

Result:
1: 18.3 kJ/mol; 2: 15.8 kJ/mol; 3: 17.4 kJ/mol; 4: 17.1 kJ/mol; 5: 20.1 kJ/mol; 6: 17.9 kJ/mol

Please state, for each entry, its recorded folding stability dG.
1. K23W
2. P44A
3. K8W
4. E48M
5. E28D
6. T11R
7. E55N

Result:
20.1 kJ/mol
19.2 kJ/mol
20.2 kJ/mol
18.7 kJ/mol
17.8 kJ/mol
18.3 kJ/mol
18.5 kJ/mol

Take each entry in turn and give its folding stability dG.
1. L63C
2. L5P
3. E60R

Result:
1. 18.6 kJ/mol
2. 10.7 kJ/mol
3. 17.4 kJ/mol
